The reported measurements were obtained from PubChem BioAssay (NCI).

Hi there, I'd appreciate the recorded TGI for every entry that follows.
# System: HT29 colon
# assayExplanation: NCI tumour cell line growth inhibition, 48 h

Use these answered entries as a reference point.
In [3]: df
Out[3]:
                                   compound    testedon  observedvalue
0  COc1ccc(/C=C/C(=O)c2cc3c(N)c(C(=O)Nc4cccc(Cl)c4C)sc3nc2C)cc1  HT29 colon        > 50 µM
1  CCOC(=O)C(=O)/C(=C/n1c(=S)[nH]c2ccc([N+](=O)[O-])cc21)C(=O)OCC  HT29 colon       > 100 µM
2  CN(CCCCCl)P(=O)(OCC1=CC(=O)c2ccccc2C1=O)OC[C@H]1O[C@@H](n2cc(F)c(=O)[nH]c2=O)C[C@@H]1O (stereo not given in full)  HT29 colon        34.4 µM
3  CC(C)OC(=O)[C@@H]1OC(C)(C)O[C@H]1C(=O)OC(C)C  HT29 colon       > 100 µM

Here is another compound to look at.
### Prompt // TGI lookup, key: CCOC(=O)C(C)c1c(C(=O)c2ccc(C)nc2)c2ccccc2n1C (stereo not given)
### Response > 100 µM

----------
# Test system: DMS 114 small cell lung
# assayExplanation: NCI tumour cell line growth inhibition, 48 h
Hi there, I'd appreciate the recorded TGI for every entry that follows.

Use these answered entries as a reference point.
>>> print(df.to_string())
                                   compound  observedvalue
0        Cc1nc2ccccn2c1N=Nc1ccc(C(=O)NN)cc1       > 100 µM
1  N#Cc1ccccc1NC(=O)/C(=N\Nc1ccc([N+](=O)[O-])cc1)C1C(=O)NC(=O)NC1=O       > 100 µM
2  CC(C)=[CH][Sb]([Br])([CH]=C(C)C)([CH]=C(C)C)[c]1ccccc1        46.3 µM
3  CC(C)NCCCC(C)Nc1ccnc2ccc3nn(C)nc3c12 (stereo unspecified)       > 100 µM

For every listed record, write down its TGI.
1. O=C(NN1C(=O)C(Cl)C1c1ccc(O)cc1)c1ccccc1O (stereo unspecified)
2. COc1c(C)c(O)c2c(=O)cc(-c3ccccc3)oc2c1C

### Response
1: 29.6 µM; 2: > 100 µM

----------
# System: HOP-92 NSCLC
# assayExplanation: NCI tumour cell line growth inhibition, 48 h
Mark Not fulfilled for TGI values under 10 µM, and Fulfilled for everything at or above.

### Prompt Determine whether this compound has TGI no lower than 10 µM: O=C1OC(O)c2cc3c(cc21)OCO3 (stereo not given)
### Response Fulfilled

### Prompt Let us now turn to COc1cc(-c2ccc(-c3ccc(C(=N)N)cc3)s2)cc(OC)c1OC
### Response Not fulfilled

----------
# Test system: HCC-2998 colon
# assayExplanation: NCI tumour cell line growth inhibition, 48 h
reportedMetric: GI50

In [3]: df
Out[3]:
                                   compound  reportedmetric  observedvalue
0  CC1(C)CN(c2cc(C(F)(F)F)cc3cncn23)CCC12NC(=O)NC2=O (stereo not given)            GI50        72.5 µM
1  NCCCCCCCCCCn1c2c(c3ccccc3c1=O)C(=O)c1ccccc1-2            GI50        6.14 µM
2  COc1cc2c(cc1OCCCCCn1c(-c3ccc(OCc4ccccc4)cc3)nc3cc(N4CCOCC4)ccc31)N=C[C@@H]1CCCN1C2=O            GI50        2.09 µM
3      CCC(CC)c1nc(Nc2cccc(OC)c2)c2ccccc2n1            GI50        7.68 µM

### Prompt // GI50 lookup, key: O=C1C=CC(=O)c2cc3cc(CO)ccc3cc21
### Response 4.42 µM
